Each recorded value in this set is attributed to ChEMBL document CHEMBL1147654.

# ASSAY TARGET: Neuronal acetylcholine receptor; alpha4/beta4 (Rattus norvegicus, UniProt P09483+P12392)
# Sequence (P09483 whole entry): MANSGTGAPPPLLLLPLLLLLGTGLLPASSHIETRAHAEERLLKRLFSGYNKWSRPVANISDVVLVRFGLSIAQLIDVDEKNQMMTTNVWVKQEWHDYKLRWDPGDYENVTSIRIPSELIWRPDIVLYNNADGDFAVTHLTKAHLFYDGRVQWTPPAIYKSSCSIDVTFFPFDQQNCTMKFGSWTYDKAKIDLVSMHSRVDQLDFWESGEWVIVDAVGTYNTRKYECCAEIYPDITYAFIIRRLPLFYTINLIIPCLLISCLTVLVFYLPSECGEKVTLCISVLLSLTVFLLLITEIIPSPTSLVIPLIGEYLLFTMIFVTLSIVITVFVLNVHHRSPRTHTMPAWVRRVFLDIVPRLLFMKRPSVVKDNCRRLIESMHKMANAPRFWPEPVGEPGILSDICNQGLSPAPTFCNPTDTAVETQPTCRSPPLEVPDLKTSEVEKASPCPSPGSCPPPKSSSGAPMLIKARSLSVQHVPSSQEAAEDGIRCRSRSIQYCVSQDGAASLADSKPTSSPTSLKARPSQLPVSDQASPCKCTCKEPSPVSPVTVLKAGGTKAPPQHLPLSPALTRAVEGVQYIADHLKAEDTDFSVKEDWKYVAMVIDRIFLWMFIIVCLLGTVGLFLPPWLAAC
# Sequence (P12392 whole entry): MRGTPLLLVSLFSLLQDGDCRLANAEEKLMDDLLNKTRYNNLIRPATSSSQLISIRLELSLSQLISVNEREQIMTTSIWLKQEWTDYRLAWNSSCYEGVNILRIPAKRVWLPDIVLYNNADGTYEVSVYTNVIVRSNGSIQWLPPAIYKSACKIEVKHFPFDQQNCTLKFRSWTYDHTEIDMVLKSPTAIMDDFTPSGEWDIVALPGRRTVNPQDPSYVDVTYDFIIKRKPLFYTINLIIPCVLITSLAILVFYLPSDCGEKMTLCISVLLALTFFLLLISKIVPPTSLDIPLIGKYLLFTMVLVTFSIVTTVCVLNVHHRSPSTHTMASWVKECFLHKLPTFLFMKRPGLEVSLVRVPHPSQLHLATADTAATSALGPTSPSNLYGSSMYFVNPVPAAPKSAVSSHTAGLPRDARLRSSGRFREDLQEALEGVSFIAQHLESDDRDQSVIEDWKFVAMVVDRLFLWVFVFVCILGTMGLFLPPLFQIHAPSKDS
# ASSAY DETAILS: Displacement of [3H]epibatidine from rat alpha-4-beta-4 nACHR expressed in human HEK293 cells at 10 uM
# Format: cell-based
Simple rule here: Ki less than 4 µM is label 1, otherwise label 0.

Consider the following illustrative entries.
O=c1ccccn1CC1CCCN(Cc2ccccc2)C1 (stereo not given) = label 1
CN1CCCC(Cn2ccccc2=O)C1 (stereo not given) = label 1
O=c1ccccn1CC1CCCNC1 (stereo not given) = label 0
O=c1ccccn1CC1CCN(Cc2ccccc2)CC1 = label 0

Confirm or reject: Ki of O=c1ccccn1CC1CCNCC1 lies strictly below 4 µM
label 0
